Where these numbers come from: PubChem BioAssay AID1628

method_description: decrease of insulin promoter-GFP reporter – imaging, high-content screening, mouse beta cells (AID 1628)
applied_conditions: MIN6 insulin promoter GFP reporter, at 5 µM, hits give low values
The campaign covered roughly 190,000 compounds. About 930 (0.49%) were called active. Some of the results follow. Entries with a potency or affinity are not part of this list.
z-score reference

Before answering, review these 5 worked examples.
Query :: Find the recorded z-score belonging to O=c1oc2c(CN3CCCCC3)c(O)ccc2cc1-c1nc2ccccc2[nH]1 and report it.
Result :: 3.57 (inactive)

Query :: What about CCN(C(=O)COC(=O)c1cccnc1Nc1cccc(C(F)(F)F)c1)C1CCS(=O)(=O)C1 (stereo unspecified) ?
Result :: -4.37 (active)

Query :: What about C=CCN1C(=O)c2cccc3c(N4CCCCC4)ccc(c23)C1=O ?
Result :: 5.61 (inactive)

Query :: What about Cc1nc2c(ccc3nc(NC(=O)C4CC4)sc32)s1 ?
Result :: 2 (inactive)

Query :: What about Oc1ccc(/C=N/Nc2ccnc3cc(Cl)ccc23)c(O)c1 ?
Result :: 5.11 (inactive)

Others:
Query :: Find the recorded z-score belonging to COc1ccc2c(n1)Sc1nc3ccccc3nc1N2 and report it.
Result :: 9.57 (inactive)

Query :: What about Nc1nnc(-c2cc3c(ccc4ccccc43)oc2=O)s1 ?
Result :: 8.81 (inactive)

Query :: What about CN1CCN(C(=O)/C(=C\c2cccs2)NC(=O)c2ccco2)CC1 ?
Result :: -6.33 (active)

Query :: What about NCC12CC3CC(C1)CC(CN)(C3)C2 ?
Result :: 3.09 (inactive)

Query :: What about Cc1oc(C)c2c(=O)ccc3c(c12)OC(N)=C(C#N)C3c1ccccc1Cl (stereo unspecified) ?
Result :: 6.29 (inactive)

Query :: What about Cc1ccccc1NC(=O)/C(=C\c1cccs1)NC(=O)c1ccco1 ?
Result :: -5.39 (active)

---

method_description: decrease of insulin promoter-GFP reporter – imaging, high-content screening, mouse beta cells (AID 1628)
applied_conditions: MIN6 insulin promoter GFP reporter, at 5 µM
The whole screen tested about 190,000 compounds, of which about 930 (0.49%) were called active.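 The calls were made as follows: active = z-score of insulin promoter reporter brightness in nuclei below -3 at 5 µM, with at least 500 cells counted; inconclusive = wells with under 500 cells, flagged as toxic or sparse; inactive = the rest.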 Some of the results follow. Measured potencies and affinities stand elsewhere.
Log the outcome using a class from yes for active, no for inactive

# count of solved cases: 5
Query :: Please indicate how the test categorized CCCCc1c(C)nn(-c2nnc3c4ccccc4n(CC)c3n2)c1C .
Result :: yes

Query :: What about O=c1[nH]c(/C(Cl)=C/c2cccc(F)c2)nc2cc(C(F)(F)F)ccc12 ?
Result :: yes

Query :: What about Cc1cc(C)cc(N=Cc2[nH]c3ccc(Br)c(Cl)c3c2O)c1 ?
Result :: no

Query :: What about CCOc1cc(/C=N/NC(N)=O)cc(Br)c1OCc1ccccc1F ?
Result :: yes

Query :: What about NC(CO)C(O)c1ccc([N+](=O)[O-])cc1 (stereo unspecified) ?
Result :: no

Next, consider the following compound.
Query :: Please indicate how the test categorized CC(C)(C)c1nc(NC(=O)Nc2ccccc2)sc1Br .
Result :: yes

---

method_description: decrease of insulin promoter-GFP reporter – imaging, high-content screening, mouse beta cells (AID 1628)
applied_conditions: MIN6 insulin promoter GFP reporter, at 5 µM
In all, about 190,000 compounds went through this assay and about 930 (0.49%) were called active.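 The calls were made as follows: active = z-score of insulin promoter reporter brightness in nuclei below -3 at 5 µM, with at least 500 cells counted; inconclusive = wells with under 500 cells, flagged as toxic or sparse; inactive = the rest.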 The list shows a part of the results. Measured potencies and affinities stand elsewhere.
Log the outcome using a class from active, inactive

# count of solved cases: 4
Query :: Please indicate how the test categorized O=[N+]([O-])c1ccc(Cc2nnc(-c3ccccc3Cl)o2)cc1 .
Result :: inactive

Query :: What about Cc1ccc(S(=O)(=O)c2cccc(S(=O)(=O)N3CCCC3)c2)cc1S(=O)(=O)N1CCCC1 ?
Result :: inactive

Query :: What about O=c1cc2oc3cc(O)c(O)cc3c(-c3ccccc3O)c-2cc1O ?
Result :: inactive

Query :: What about Cc1c(C(=O)NCc2cccnc2)oc2ccc(S(=O)(=O)N3CCCCCC3)cc12 ?
Result :: active

Others:
Query :: Please indicate how the test categorized CN(C)c1ccc(/C=C2\C(=N)N3C(=NC2=O)Sc2cc(S(C)(=O)=O)ccc23)cc1 .
Result :: inactive
